Target: C3b (UniProt P01024 749-1663; P01024 749-1663, biotin (EZ-Link Maleimide-PEG2-Biotin, after 1 mM DTT) where immobilised on streptavidin chips; none where amine-coupled)
Sequence (P01024 23-667, chain 1 of 2): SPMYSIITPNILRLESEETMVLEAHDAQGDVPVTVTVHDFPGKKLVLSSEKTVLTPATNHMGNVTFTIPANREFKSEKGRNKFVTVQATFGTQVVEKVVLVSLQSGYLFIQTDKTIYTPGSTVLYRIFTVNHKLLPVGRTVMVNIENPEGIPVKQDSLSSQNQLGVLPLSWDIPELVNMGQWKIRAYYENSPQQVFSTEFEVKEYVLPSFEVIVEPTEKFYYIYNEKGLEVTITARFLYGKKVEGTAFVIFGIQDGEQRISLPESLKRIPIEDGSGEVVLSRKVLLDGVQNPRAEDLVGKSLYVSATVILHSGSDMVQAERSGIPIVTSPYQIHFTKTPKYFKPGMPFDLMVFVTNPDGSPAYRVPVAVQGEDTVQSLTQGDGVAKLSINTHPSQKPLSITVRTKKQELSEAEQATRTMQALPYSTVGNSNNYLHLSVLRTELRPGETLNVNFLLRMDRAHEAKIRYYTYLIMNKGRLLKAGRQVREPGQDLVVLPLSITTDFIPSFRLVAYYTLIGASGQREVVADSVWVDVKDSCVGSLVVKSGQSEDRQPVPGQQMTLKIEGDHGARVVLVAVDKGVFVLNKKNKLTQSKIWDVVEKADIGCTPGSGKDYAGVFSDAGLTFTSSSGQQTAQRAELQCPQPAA
Sequence (P01024 749-1663, chain 2 of 2): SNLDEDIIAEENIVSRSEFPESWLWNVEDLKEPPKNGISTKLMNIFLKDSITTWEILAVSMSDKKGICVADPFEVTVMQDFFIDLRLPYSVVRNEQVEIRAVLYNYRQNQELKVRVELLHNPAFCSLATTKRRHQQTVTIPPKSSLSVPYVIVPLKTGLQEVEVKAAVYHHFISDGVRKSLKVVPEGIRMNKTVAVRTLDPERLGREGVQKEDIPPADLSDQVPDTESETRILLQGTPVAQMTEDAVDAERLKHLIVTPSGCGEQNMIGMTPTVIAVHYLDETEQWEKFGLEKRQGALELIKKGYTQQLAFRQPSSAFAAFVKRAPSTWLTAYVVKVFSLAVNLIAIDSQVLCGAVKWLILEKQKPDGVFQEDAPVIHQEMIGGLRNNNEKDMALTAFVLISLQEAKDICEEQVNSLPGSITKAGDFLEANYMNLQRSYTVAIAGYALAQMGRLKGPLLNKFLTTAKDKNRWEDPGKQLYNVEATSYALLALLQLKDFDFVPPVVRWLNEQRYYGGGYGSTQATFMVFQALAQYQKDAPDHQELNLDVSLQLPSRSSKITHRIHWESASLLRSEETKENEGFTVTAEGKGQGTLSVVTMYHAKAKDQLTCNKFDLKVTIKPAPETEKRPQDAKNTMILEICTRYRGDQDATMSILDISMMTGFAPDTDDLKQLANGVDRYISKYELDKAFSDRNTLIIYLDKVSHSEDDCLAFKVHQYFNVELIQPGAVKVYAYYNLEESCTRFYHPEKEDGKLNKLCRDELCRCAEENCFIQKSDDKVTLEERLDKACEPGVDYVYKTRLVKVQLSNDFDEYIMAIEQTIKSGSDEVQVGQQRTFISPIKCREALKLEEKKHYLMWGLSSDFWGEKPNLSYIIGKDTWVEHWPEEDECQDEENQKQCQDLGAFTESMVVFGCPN
Test: SPR; biotin-coupled C3b
assay metric: pKd
The meaning of pKd here: minus log10 of the concentration in molar units.

[ask] Return reported pKd; argument: FH18-20(LV) (domain or fragment) TSCVNPPTVQNAYIVSRQMSKYPSGERVRYQCRSPYEMFGDEEVMCLNGNWTEPPQCKDSTGKCGPPPPIDNGDITSFPLSVYAPASSVEYQCQNLYQLEGNKRITCRNGQWSEPPKCLHPCVISREIMENYNIALRWTAKQKLYLRTGESVEFVCKRGYRLSSRSHTLRTTCWDGKLEYPTCAKR
[reply] 5.25
